- System: COLO 205 colon
- Assay remarks: NCI-60 one-dose screen, 48 h
- Reported conditions: 10 µM unless noted
- Procedure: Cells are grown in 96 well plates and exposed to the test compound for 48 hours. Compounds are tested at a single concentration, which is 10^-5 M for most compounds. The reported endpoint is percent growth (GI% or GIPRCNT), where numbers from 0 - 100% represent growth inhibition, and numbers from -100% - 0 represent cell death. For example, a value of 40 represents 60% growth inhibition. A value of 0 means no net growth occurred over the course of the experiment. […]
This is part of a sample that, as a whole, favours compounds with a hit. Of some 83,000 tested, about 20% had one in any assay. Calls of active or inactive are those of the source. The calls were made as follows: active = growth percent below 10; inactive = the rest.
Respond with a class label; see active, inactive

{"Compound": "COc1ccc2c(-c3ccc(F)cc3)c(C#N)c(=NC(C)=O)oc2c1", "Class assignment": "inactive"}

Status in this test for "Nc1ncnc2c1c(-c1ccc(Oc3ccccc3)cc1)nn2C[C@H]1SSC[C@@H]1O" ?
active

// next record "CC[C@@]1(O)C(=O)OCc2c1cc1n(c2=O)Cc2c-1nc1ccccc1c2/C=N/OC(C)(C)C"
active

----------
- Test system: SF-295 CNS
- Assay remarks: NCI-60 one-dose screen, 48 h (100 = growth as untreated, 0 = no growth, -100 = all killed)
- Reported conditions: 10 µM unless noted
Compounds without any hit were thinned out: in the full panel of roughly 83,000, 20% have a hit.
Metric name: growth (%)
Answers are plain numbers, in %.

Example compounds with recorded growth:
{"Compound": "Cc1cc(O[C@@H]2O[C@@H](C)[C@H](O)[C@@H](O)[C@H]2O)c2c3c(c(O[C@@H]4O[C@@H](C)[C@H](O)[C@@H](O)[C@H]4O)cc2c1)C(=O)c1c(O)cccc1C3=O", "Metric name": "growth", "Units text": "%", "Reading": 79}
{"Compound": "COc1ccc(-c2nn(-c3ccc(NC(=O)Nc4cc(C(F)(F)F)cc(C(F)(F)F)c4)cc3)cc2-c2ccncc2)cc1Cl", "Metric name": "growth", "Units text": "%", "Reading": 4}
{"Compound": "CCOC(=O)C1=C(N)Oc2cc(OC)ccc2C1c1ccc(F)c(F)c1 (stereo not given)", "Metric name": "growth", "Units text": "%", "Reading": 17.7}
{"Compound": "c1ccc([Se]CCCN2CCN(CCC[Se]c3ccccc3)CC2)cc1", "Metric name": "growth", "Units text": "%", "Reading": -58.4}
{"Compound": "CCOc1ccccc1C(=O)N1CCN(c2cc(Cl)cc(Cl)c2)CC1", "Metric name": "growth", "Units text": "%", "Reading": 17.9}

For each of the compounds below, note its growth.
1. CC(C)(C)OC(=O)N1CC(Cn2cc(C(F)(F)F)c3c(Cl)ncnc32)C1
2. O=C(Cn1c2ccccc2c2ccncc21)N/N=C\c1ccc2ccccc2c1
3. Cc1cc(N2CCOCC2)nc(N(CCNc2ccnc3cc(Cl)ccc23)Cc2ccco2)n1
4. COc1cc2c(cc1OCCCCC(=O)Nc1ccc(-c3nc4ccccc4s3)cc1)N=C[C@@H]1CCCN1C2=O

1: 30.4; 2: 28.7; 3: 6.25; 4: 18.3

Could you share which growth value was measured for "CN(C)c1ccc2cc(-c3nc4ccccc4s3)c(N)nc2c1" ?
22.3

----------
- Test system: UACC-62 melanoma
- Assay remarks: NCI-60 one-dose screen, 48 h (100 = growth as untreated, 0 = no growth, -100 = all killed)
- Reported conditions: 10 µM unless noted
About 83,000 compounds went through this panel and 20% of them were active in at least one assay; those are over-represented in the sample as a whole.
Param label: returns 1 when growth < 80%, returns -1 otherwise, including exact equality.

Record excerpt, results attached:
{"Compound": "NS(=O)(=O)c1ccc(Nc2nc(O)c(/C=C3\\C=Nc4ccccc43)s2)cc1", "Class assignment": -1}
{"Compound": "Cc1ccc2c(c1)Nc1ccc(C)cc1C2(C)C", "Class assignment": -1}
{"Compound": "COc1cc(C(=O)C[n+]2ccccc2)ccc1OC(C)=O", "Class assignment": -1}
{"Compound": "CC1=C2C(=C[C@@](C)(CO)[C@@H]2OC(=O)N(C)CCN(C)C(=O)OC(C)(C)C)C(=O)[C@](C)(O)C12CC2", "Class assignment": -1}
{"Compound": "CCCCOc1c(N)cccc1C(=O)OCCN(CC)CC", "Class assignment": -1}

I'd appreciate it if you could check whether CC1=C[S+](c2ccccc2)c2cccc3cc4ccccc4c1c23 (stereo unspecified) has growth smaller than 80%.
1

Item: "C=C1C(=O)O[C@H]2[C@H]1CC/C(COC(=O)c1ccc(Cl)nc1)=C\CC[C@@]1(C)O[C@@H]21"
1

Follow-up item: "Fc1cccc(F)c1C#Cc1ccc2cccnc2c1"
1

Field entry: CCN(CC)CCNCC(O)Cc1ccc(OC)cc1 (stereo unspecified)
-1

Please do the same for "O=[N+]([O-])c1cccc(C(c2ccccc2)c2ccccc2)c1" as well.
-1

// repeat for "NC(=O)C1=C[C@H]2[C@H]3C=C[C@@]2(O)C(=O)O[C@@H]3O1" and report
1

----------
- System: MALME-3M melanoma
- Assay remarks: NCI-60 one-dose screen, 48 h (100 = growth as untreated, 0 = no growth, -100 = all killed)
- Reported conditions: 10 µM unless noted
- Experimental: Cells are grown in 96 well plates and exposed to the test compound for 48 hours. Compounds are tested at a single concentration, which is 10^-5 M for most compounds. The reported endpoint is percent growth (GI% or GIPRCNT), where numbers from 0 - 100% represent growth inhibition, and numbers from -100% - 0 represent cell death. For example, a value of 40 represents 60% growth inhibition. A value of 0 means no net growth occurred over the course of the experiment. […]
The panel holds about 83,000 compounds, 20% with a hit somewhere; the sample as a whole holds those more often. Active and inactive are the calls of the source. The calls were made as follows: active = growth percent below 10; inactive = the rest.
Metric name: growth

{"Compound": "Cc1ccc2c(c1)Nc1ccc(C)cc1C2(C)C", "growth": "98.9% (inactive)"}
{"Compound": "Cc1cc2nc(-c3c(N)ncc(C#N)c3-c3ccc(Cl)cc3)[nH]c2cc1C", "growth": "63% (inactive)"}
{"Compound": "CC1=C[S+](c2ccccc2)c2cccc3cc4ccccc4c1c23 (stereo unspecified)", "growth": "-41.2% (active)"}
{"Compound": "CCN(CC)c1ccc(C2CC(c3cc(OC)c(OC)c(OC)c3)=NN2)cc1 (stereo unspecified)", "growth": "108% (inactive)"}
{"Compound": "COc1cc(-c2nc3ccccc3s2)ccc1OCc1nc2n(n1)S(=O)(=O)c1ccccc1N2C", "growth": "39.4% (inactive)"}

Dear reader, for each entry below, please note its growth.
1. COc1cc2ncnc(Oc3ccc(NC(=O)Nc4ccc(CN5CCOCC5)c(C(F)(F)F)c4)c4ccccc34)c2cc1OC
2. CC(C)(c1ccc(OCC(O)CNCc2ccco2)cc1)c1ccc(OCC(O)CNCc2ccco2)cc1 (stereo unspecified)
3. Cn1cnc([N+](=O)[O-])c1N1c2ccncc2Sc2ccncc21
4. COC(=O)c1oc2c(C(C)=O)c(OCCCN(C)C)ccc2c1C
5. Nc1ncnc2c1ncn2C1OC(COC(c2ccccc2)(c2ccccc2)c2ccccc2)C(O)C1O (stereo unspecified)
6. CCCc1nn2c(CCC(=O)c3nc4ccc([N+](=O)[O-])cc4[nH]3)nnc2s1
7. C[C@H]1C=C(C[C@@H](O)CC#CC#CCCCCC[C@@H](O)[C@H]2CCC(=O)O2)C(=O)O1
8. C=C1C(=O)O[C@H]2[C@H]1CC/C(COC(=O)c1ccc3ccccc3c1)=C\CC[C@@]1(C)O[C@@H]21

["-11.1% (active)", "98% (inactive)", "84% (inactive)", "72.3% (inactive)", "95.5% (inactive)", "105% (inactive)", "105% (inactive)", "-75.8% (active)"]

----------
- Test system: OVCAR-8 ovarian
- Assay remarks: NCI-60 one-dose screen, 48 h (100 = growth as untreated, 0 = no growth, -100 = all killed)
- Reported conditions: 10 µM unless noted
- Description: Growth inhibition of the OVCAR-8 human tumor cell line is measured as a screen for anti-cancer activity. Cells are grown in 96 well plates and exposed to the test compound for 48 hours. Compounds are tested at a single concentration, which is 10^-5 M for most compounds. The reported endpoint is percent growth (GI% or GIPRCNT), where numbers from 0 - 100% represent growth inhibition, and numbers from -100% - 0 represent cell death. For example, a value of 40 represents 60% growth inhibition. […]
This is part of a sample that, as a whole, favours compounds with a hit. Of some 83,000 tested, about 20% had one in any assay. Active and inactive are the calls of the source. Rule for the calls: active = growth percent below 10; inactive = the rest.
Metric name: growth

{"Compound": "COc1cc(-c2nc3sc(C)cn3c2/C=C2\\C(=O)Nc3ccccc32)c(Br)c(OC)c1OC", "Reading": "65% (inactive)"}

Hi! Can you tell me growth for each of these compounds?
1. CC(=O)Nc1ccc([I+]c2ccc([N+](=O)[O-])cc2)cc1
2. CC(C(C(=O)N1CCCCC1)N1CCCCC1)N1CCCCC1 (stereo not given)

95% (inactive)
105% (inactive)

Batch: growth for all items listed.
1. Nc1nccc2c1ccn2-c1ccc(NC(=O)c2ccc(N3CCOCC3)c(C(F)(F)F)c2)cc1
2. COc1ccc(C2CC(c3cc(Cl)c(C)cc3OC)=NN2c2ccc(S(N)(=O)=O)cc2)cc1OC (stereo not given)
3. Nc1ncc(-c2ccc3ncnc(Nc4ccc(F)c(Cl)c4)c3c2)cn1
4. O=C(O)c1ccc(-n2cc(/C=N/Nc3ccc(F)cc3)c(-c3cccc(C(F)(F)F)c3)n2)cc1
5. Oc1ccc(O)c(-[n+]2ccccc2)c1

1. 28% (inactive)
2. 73.8% (inactive)
3. 61.3% (inactive)
4. 78.4% (inactive)
5. 99.5% (inactive)

# batch: return growth for each of the 2 compounds below
1. CC(C)(C)OC(=O)N1CCN(CCn2cc(C(F)(F)F)c3c(Cl)ncnc32)CC1
2. Nc1nc(Nc2ccc(OCc3cccc(F)c3)cc2)c2c(n1)[nH]c1ccc(O)cc12

1. -61.4% (active)
2. -61.7% (active)
